B1: Hairpin Ribozyme (parent)
chain: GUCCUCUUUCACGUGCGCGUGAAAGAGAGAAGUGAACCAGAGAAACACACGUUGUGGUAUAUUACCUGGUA

- Variants of: B1
- Protocol summary: self-cleavage, relative activity (ratio to wild type); higher = more cleavage; co-transcriptional
Test readout: self-cleavage
Form rule: numeric answer, no unit written next to it.

INSERT INTO assay_data (sequence_code, value) VALUES
  ('GUCCUCUUCCACGUGCGCGUGAAAGAGAGAAAUGAACCAGAGAAACACACGUUGUGGUAUAUUACCUGGUA [U9C G32A]', 0.125),
  ('GUCCUCUUCCACGUGCGCGUGAAAGAGAGAAGUGAACCAGAUAAACACACGUUGUGGUAUAUUACCUGGUA [U9C G42U]', 0.34),
  ('GUCCUCUUUCACGUGUGCGUGAAAGAGAGAAGUGAACCAGAGAAACACGCGUUGUGGUAUAUUACCUGGUA [C16U A49G]', 0.659),
  ('GUCCUCUUUCACGUGCGCGUGAAAGCGAGAAGUGAACCAGAGAAACACACGUUGUGGUAUAUUACCUGGUC [A26C A71C]', 1.08),
  ('GUCCUCUUUCACGUGCGCGUGAAAGAGAGAAGUAAACCAGAGAAACACACGUUGUGUUAUAUUACCUGGUA [G34A G57U]', 0.461);

In plain terms, GUCCUCUUUCACGUGCGCGUGAAAGCGAGAAGUGAACCAGGGAAACACACGUUGUGGUAUAUUACCUGGUA [A26C A41G] has a documented self-cleavage of 0.633

In plain terms, GUCCUCUUUCACGUGCGCGUGAAAGAGAGAAGUGAAACAGAGAAACACACGUUGUGGAAUAUUACCUGGUA [C37A U58A] has a documented self-cleavage of 0.235

In plain terms, GUCCUCUUUCACGUGCGCGUGAAAGAGAGAAGUGAACCAGAGAAACACACGUUGUGGCAUAUUACUUGGUA [U58C C66U] has a documented self-cleavage of 0.546

In plain terms, GUCCUCUUUCACGUGCGCGUGAAAGAGAGAAGUGAACCAGAGAAACACACGUUGUGCUAUAUUACUUGGUA [G57C C66U] has a documented self-cleavage of 0.101

In plain terms, GUCCUCUUUCACGUACGCGUGAAAGAGAGAAGUGAACCAGGGAAACACACGUUGUGGUAUAUUACCUGGUA [G15A A41G] has a documented self-cleavage of 0.92

In plain terms, GUCCUCUUUCACGUGCGCGUGAAAGAGAGAAGUGAACCAGAGUAACACACGUGGUGGUAUAUUACCUGGUA [A43U U53G] has a documented self-cleavage of 0.046
